Let's go through some MIC measurements on Serratia marcessans together.

CCN[C@H]1[C@@H](O[C@H]2[C@H](O)[C@@H](O[C@H]3OC[C@](C)(O)[C@H](NC)[C@H]3O)[C@H](N)C[C@@H]2N)O[C@H](CO)[C@@H](O)[C@@H]1O    > 25 µg/mL
CN[C@@H]1[C@@H](O)[C@@H](O[C@@H]2[C@@H](O)[C@H](O[C@H]3O[C@H](CN)[C@@H](O)C[C@H]3N)[C@@H](N)C[C@H]2N)OC[C@]1(C)O [3'-deoxy-JI-20A]    3 µg/mL
CNC[C@H]1O[C@H](O[C@H]2[C@H](O)[C@@H](O[C@H]3OC[C@](C)(O)[C@H](NC)[C@H]3O)[C@H](N)C[C@@H]2N)[C@H](O)C[C@@H]1O    3 µg/mL
CN[C@@H]1[C@@H](O)[C@@H](O[C@@H]2[C@@H](O)[C@H](O[C@H]3O[C@H](CO)[C@@H](O)[C@H](O)[C@H]3N)[C@@H](N)C[C@H]2N)OC[C@]1(C)O (stereo in doubt)    > 25 µg/mL

Entry `CN[C@@H]1[C@@H](O)[C@@H](O[C@@H]2[C@@H](O)[C@H](O[C@H]3O[C@H](CO)[C@@H](O)C[C@H]3N)[C@@H](N)C[C@H]2N)OC[C@]1(C)O` ; MIC = 0.8 µg/mL

Entry `CCN[C@@H]1C[C@H](O)[C@@H](CO)O[C@@H]1O[C@H]1[C@H](O)[C@@H](O[C@H]2OC[C@](C)(O)[C@H](NC)[C@H]2O)[C@H](N)C[C@@H]1N` ; MIC = 3 µg/mL

Entry CN[C@@H]1[C@@H](O)[C@@H](O[C@@H]2[C@@H](O)[C@H](O[C@H]3O[C@H](CN)[C@@H](O)[C@H](O)[C@H]3N)[C@@H](N)C[C@H]2N)OC[C@]1(C)O [JI-20A] ; MIC = > 25 µg/mL

These data points were gathered from patent US4063015A.
